- Protocol Details: Permeability assay, Caco-2 monolayer cell model
- Format: in vitro ADME
- Assay Conditions: human; Caco-2, compound 5 μM, 120 minutes, Verapamil 0 μM
Quantity Measured: Papp B→A at 120 min, 5 μM (×10⁻⁶ cm/s)
Lab book: enter the figure in ×10⁻⁶ cm/s, no units written.

compound=C=CC(=O)N1CC2(CCN(c3nc(C4CCN(C)CC4)nc4c(OCC(F)(F)F)c(-c5c(C)ccc6[nH]ncc56)c(C=C)cc34)CC2)C1 quantity_measured="Papp B→A at 120 min, 5 μM" observed_result=7.18

Need Papp B→A at 120 min, 5 μM of C=CC(=O)N1CC2(CCN(c3nc(OC4CCN(C5CCOCC5)CC4)nc4c(OCC(F)(F)F)c(-c5c(C)ccc6[nH]ncc56)c(C=C)cc34)CC2)C1 [Compound D1, reference compound] , thanks. 6.75

---

Papp A→B at 120 min, 5 μM by entry:
- Protocol Details: Permeability assay, Caco-2 monolayer cell model
- Type: in vitro ADME
- Assay Conditions: human; Caco-2, compound 5 μM, 120 minutes, Verapamil 0 μM
Lab book: enter the figure in ×10⁻⁶ cm/s, no units written.

Example molecules with recorded Papp A→B at 120 min, 5 μM:
molecule="C=CC(=O)N1CC2(CCN(c3nc(C4CCN(C)CC4)nc4c(OCC(F)(F)F)c(-c5c(C)ccc6[nH]ncc56)c(CC)cc34)CC2)C1 [Compound 4]" quantity_measured="Papp A→B at 120 min, 5 μM" observed_result=0.21
molecule="C=CC(=O)N1CC2(CCN(c3nc(C4CCN(C)CC4)nc4c(OCC(F)(F)F)c(-c5c(C)ccc6[nH]ncc56)c(C=C)cc34)CC2)C1 [Compound 1]" quantity_measured="Papp A→B at 120 min, 5 μM" observed_result=0.51
molecule="C=CC(=O)N1CC2(CCN(c3nc(C4CCN(C(C)=O)CC4)nc4c(OCC(F)(F)F)c(-c5c(C)ccc6[nH]ncc56)c(C=C)cc34)CC2)C1 [Example 14]" quantity_measured="Papp A→B at 120 min, 5 μM" observed_result=1.33
molecule="C=CC(=O)N1CC2(CCN(c3nc(OC4CCN(C5CCOCC5)CC4)nc4c(OCC(F)(F)F)c(-c5c(C)ccc6[nH]ncc56)c(C=C)cc34)CC2)C1 [Compound D1, reference compound]" quantity_measured="Papp A→B at 120 min, 5 μM" observed_result=0.06

Continue with the molecule presented below.
Need Papp A→B at 120 min, 5 μM of C=CC(=O)N1CC2(CCN(c3nc(C4CCN(C5CCOCC5)CC4)nc4c(OCC(F)(F)F)c(-c5c(C)ccc6[nH]ncc56)c(C=C)cc34)CC2)C1 [Example 58] , thanks. 0.34

---

- Protocol Details: Permeability assay, Caco-2 monolayer cell model
- Format: in vitro ADME
- Assay Conditions: human; Caco-2, compound 5 μM, Verapamil 0 μM; read-out: RE (Efflux Ratio)
efflux ratio at 120 min, 5 μM by entry:
Please state the value as a number alone, without comment.

Example molecules with recorded efflux ratio at 120 min, 5 μM:
molecule="C=CC(=O)N1CC2(CCN(c3nc(C4CCN(C)CC4)nc4c(OCC(F)(F)F)c(-c5c(C)ccc6[nH]ncc56)c(CC)cc34)CC2)C1 [Compound 4]" observed_result=46.5
molecule="C=CC(=O)N1CC2(CCN(c3nc(C4CCN(C(C)=O)CC4)nc4c(OCC(F)(F)F)c(-c5c(C)ccc6[nH]ncc56)c(C=C)cc34)CC2)C1 [Example 14]" observed_result=4.36
molecule="C=CC(=O)N1CC2(CCN(c3nc(C4CCN(C5CCOCC5)CC4)nc4c(OCC(F)(F)F)c(-c5c(C)ccc6[nH]ncc56)c(C=C)cc34)CC2)C1 [Example 58]" observed_result=30.6
molecule="C=CC(=O)N1CC2(CCN(c3nc(OC4CCN(C5CCOCC5)CC4)nc4c(OCC(F)(F)F)c(-c5c(C)ccc6[nH]ncc56)c(C=C)cc34)CC2)C1 [Compound D1, reference compound]" observed_result=113

Continue with the molecule presented below.
Need efflux ratio at 120 min, 5 μM of C=CC(=O)N1CC2(CCN(c3nc(C4CCN(C)CC4)nc4c(OCC(F)(F)F)c(-c5c(C)ccc6[nH]ncc56)c(C=C)cc34)CC2)C1 [Compound 1] , thanks. 14.2

---

Papp B→A at 120 min, 5 μM by entry:
- Protocol Details: Permeability assay, Caco-2 monolayer cell model
- Assay type: in vitro ADME
- Assay Conditions: human; Caco-2, compound 5 μM, 120 minutes, Verapamil 0 μM
Lab book: enter the figure in ×10⁻⁶ cm/s, no units written.

Example compounds with recorded Papp B→A at 120 min, 5 μM:
compound="C=CC(=O)N1CC2(CCN(c3nc(C4CCN(C5CCOCC5)CC4)nc4c(OCC(F)(F)F)c(-c5c(C)ccc6[nH]ncc56)c(C=C)cc34)CC2)C1 [Example 58]" observed_result=10.3
compound="C=CC(=O)N1CC2(CCN(c3nc(C4CCN(C)CC4)nc4c(OCC(F)(F)F)c(-c5c(C)ccc6[nH]ncc56)c(CC)cc34)CC2)C1 [Compound 4]" observed_result=9.64

Continue with the compound presented below.
Need Papp B→A at 120 min, 5 μM of C=CC(=O)N1CC2(CCN(c3nc(C4CCN(C(C)=O)CC4)nc4c(OCC(F)(F)F)c(-c5c(C)ccc6[nH]ncc56)c(C=C)cc34)CC2)C1 [Example 14] , thanks. 5.82
